Entries and their measured Ki follow.
# test_system: human nNOS (Homo sapiens, UniProt P29475)
# Sequence (P29475 whole entry): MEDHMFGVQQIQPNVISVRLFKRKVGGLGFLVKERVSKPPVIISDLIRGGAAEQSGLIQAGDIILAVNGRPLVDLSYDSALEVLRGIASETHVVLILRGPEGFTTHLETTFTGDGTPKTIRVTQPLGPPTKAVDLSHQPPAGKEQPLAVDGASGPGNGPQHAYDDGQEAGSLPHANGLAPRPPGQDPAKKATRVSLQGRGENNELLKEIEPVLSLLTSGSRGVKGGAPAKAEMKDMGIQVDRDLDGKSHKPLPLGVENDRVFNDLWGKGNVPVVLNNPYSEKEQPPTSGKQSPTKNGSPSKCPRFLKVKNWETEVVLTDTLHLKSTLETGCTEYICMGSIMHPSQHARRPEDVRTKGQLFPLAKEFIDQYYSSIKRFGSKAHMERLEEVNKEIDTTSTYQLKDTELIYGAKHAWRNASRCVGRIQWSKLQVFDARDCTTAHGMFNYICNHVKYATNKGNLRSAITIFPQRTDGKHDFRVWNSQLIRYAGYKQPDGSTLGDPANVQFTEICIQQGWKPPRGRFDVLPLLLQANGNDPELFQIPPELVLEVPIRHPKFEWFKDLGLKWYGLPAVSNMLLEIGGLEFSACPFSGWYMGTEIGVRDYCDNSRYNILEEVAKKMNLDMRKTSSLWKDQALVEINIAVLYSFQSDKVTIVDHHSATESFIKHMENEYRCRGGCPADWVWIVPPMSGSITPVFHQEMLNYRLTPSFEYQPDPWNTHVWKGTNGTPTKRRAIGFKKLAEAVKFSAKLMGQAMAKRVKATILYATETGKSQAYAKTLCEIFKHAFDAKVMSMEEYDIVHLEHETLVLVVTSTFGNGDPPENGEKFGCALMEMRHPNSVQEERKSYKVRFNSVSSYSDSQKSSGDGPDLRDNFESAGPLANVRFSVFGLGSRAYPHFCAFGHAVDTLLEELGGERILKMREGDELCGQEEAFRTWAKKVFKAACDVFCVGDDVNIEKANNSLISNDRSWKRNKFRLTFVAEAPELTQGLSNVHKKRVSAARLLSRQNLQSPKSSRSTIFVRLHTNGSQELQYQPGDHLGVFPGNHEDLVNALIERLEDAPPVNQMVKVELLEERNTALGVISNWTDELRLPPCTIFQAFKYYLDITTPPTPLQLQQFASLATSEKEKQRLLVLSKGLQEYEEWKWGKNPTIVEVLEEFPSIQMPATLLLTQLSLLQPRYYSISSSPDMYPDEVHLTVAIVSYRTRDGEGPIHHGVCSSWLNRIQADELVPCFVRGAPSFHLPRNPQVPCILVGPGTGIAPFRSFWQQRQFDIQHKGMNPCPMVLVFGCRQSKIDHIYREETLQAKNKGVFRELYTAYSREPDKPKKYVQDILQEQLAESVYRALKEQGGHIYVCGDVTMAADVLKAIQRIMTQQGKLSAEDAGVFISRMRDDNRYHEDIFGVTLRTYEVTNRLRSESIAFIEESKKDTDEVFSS
# protocol_summary: NO hemoglobin capture assay, human nNOS
# Type: biochemical
# condition_summary: Table 4; read-out: Ki Human nNOS
Just the number please, in nM, no unit attached.

Reference set (5 entries):
1) Cc1cc(N)nc(CCc2c(F)c(F)cc(CC[C@H]3CCCN3C)c2F)c1 [Compound 52] | 151
2) Cc1cc(N)nc(CCc2c(F)c(F)cc(CC[C@@H]3CCCN3C)c2F)c1 [Compound 51] | 112
3) CNC/C=C/c1cc(F)cc(CCc2cc(C)cc(N)n2)c1 [Compound 48] | 28
4) CNC/C=C\c1cc(F)cc(CCc2cc(C)cc(N)n2)c1 [Compound 47] | 77
5) CNCC#Cc1cc(F)c(F)c(CCc2cc(C)cc(N)n2)c1F [Compound 50] | 168

// CNCc1ccc2ncc(CCc3cc(C)cc(N)n3)cc2c1 [Compound 49] : Ki value = 36

* * *

# test_system: human nNOS (Homo sapiens, UniProt P29475)
# protocol_summary: NO hemoglobin capture assay, human nNOS
# Assay type: biochemical
# condition_summary: pH 7.4; read-out: Ki human nNOS
measure_name: Ki (nM)
Quick note: give the figure in nM, leave out the unit.

1) CCO[C@@H]1C[C@H](CCc2cc(F)c(F)c(CCc3cc(C)cc(N)n3)c2)N(C)C1 | 87

Given item Cc1cc(N)nc(CCc2cc(C#CCN(C)C)cc(F)c2F)c1 , the value recorded as its Ki is 84

Lookup result for Cc1cc(N)nc(CCc2c(F)c(F)cc(CCCN(C)C)c2F)c1 ; measured Ki: 58

Just so you know, measured Ki for Cc1cc(N)nc(CCc2cc(F)cc(CCCN(C)C)c2F)c1 came out at 157

Recorded Ki (compound Cc1cc(N)nc(CCc2cc(CC[C@H]3COCCN3C)cc(F)c2F)c1 ): 89

Recorded Ki (compound Cc1cc(N)nc(CCc2cc(F)cc(C#CCN(C)C)c2)c1 ): 124

Quick note, Ki for Cc1cc(N)nc(CCc2cc(F)cc(CC[C@@H]3C[C@H](F)CN3)c2)c1 landed at 129

Value of measured Ki for the entry Cc1cc(N)nc(CCc2cc(F)cc(CC[C@@H]3CCCN3C)c2)c1 : 52

Record Cc1cc(N)nc(CCc2cc(F)cc(CC[C@H]3CCCN3C)c2)c1 . Reported Ki: 84

For reference, reported Ki for CNCC#Cc1cc(F)cc(CCc2cc(C)cc(N)n2)c1 stands at 58

* * *

# test_system: human nNOS (Homo sapiens, UniProt P29475)
# protocol_summary: NO hemoglobin capture assay, human nNOS
# Type: biochemical
# condition_summary: Table 5
Counter-ions that a name gives are not always drawn.
Selectivity hn/rn listing for selected compounds.
Please reply with the number alone, leaving off any unit.

1. CNCCCc1cc(C)cc(N)n1 [Compound 70, hydrochloride] | 1.4
2. CNCCc1cc(F)c(F)c(CCc2cc(C)cc(N)n2)c1 | 1.2
3. CNCC#Cc1cc(C)cc(N)n1 [Compound 71, hydrochloride] | 1.0

Entry under test: Cc1cc(N)nc(CCCN2CCN(C)CC2)c1 . Its Selectivity hn/rn was 3.0

Note to self: Selectivity hn/rn recorded for Cc1cc(N)nc(C#CCN2CCN(C)CC2)c1 was 2.2
